Tested on: SF-295 CNS
assay remarks: NCI-60 one-dose screen, 48 h (100 = growth as untreated, 0 = no growth, -100 = all killed)
test settings: 10 µM unless noted
The panel holds about 83,000 compounds, 20% with a hit somewhere; the sample as a whole holds those more often.
Parameter: growth. Scope: all listed entries.
Record the value in %, omitting the unit from your answer.

compound	value
S=C(Nc1ccc(Cl)cc1)Nc1ccc(Cl)cc1 (tested in a mixture with another compound)	-6.55
CCN(CC)CCCC(C)Nc1c(-c2ccccc2)cnc2cc(Cl)ccc12 (centres undefined)	86.5
O=c1oc2ccccc2cc1-c1cc(-c2ccc(-c3cc(-c4cc5ccccc5oc4=O)nc(-c4cc5ccccc5oc4=O)c3)cc2)cc(-c2cc3ccccc3oc2=O)n1	111
CC(NC(=O)c1ccccc1)C(=O)Nc1ccccc1 (centres undefined)	125
COc1cc(C2CC(c3ccccc3)=NN2C=O)ccc1Oc1ccnc2cc(Cl)ccc12 (centres undefined)	43.3
CC(CN1CCN(CC(C)Nc2ccnc3cc(Cl)ccc23)CC1)Nc1ccnc2cc(Cl)ccc12 (centres undefined)	-48.2

Query :: For the compound CC1OC(n2c3ccccc3c3c4c(c5c6ccccc6[nH]c5c32)C(=O)N(CCN2CCOCC2)C4=O)CC(O)C1O (centres undefined) , give its measured growth value.
Result :: 6.46

Query :: Determine from records and report growth for NC(=O)N/N=C\c1ccc([N+](=O)[O-])o1
Result :: 97.7

Query :: Return growth for the following compound: COc1ccc(NC(=O)c2sc3c(=O)[nH]c(C(F)(F)F)nc3c2C)cc1
Result :: 111

###

Tested on: MALME-3M melanoma
assay remarks: NCI-60 one-dose screen, 48 h (100 = growth as untreated, 0 = no growth, -100 = all killed)
test settings: 10 µM unless noted
This is part of a sample that, as a whole, favours compounds with a hit. Of some 83,000 tested, about 20% had one in any assay.
Readings of growth for the listed compounds
Record the value in %, omitting the unit from your answer.

compound	unit of measurement	growth
O=S1(=O)NCCCN1CCNc1nccc(-c2c(-c3cccc(O)c3)nc3sccn23)n1	%	17.3
CCOC(=O)Nc1ccc2nc(Sc3ccc(Cl)cc3)sc2c1	%	42
CCCCCCCCCCCCCCCCCC1=NCCN1CCO	%	129

Query :: Check the records and state growth for O=C(/C=C/c1ccc(F)cc1)N1CCN(C(=O)/C=C/c2ccc(C(F)(F)F)cc2)CC1
Result :: 98.6

Query :: Dear colleague, please send me the reported growth for CN1C(=O)N(C)C2C1NN=c1s/c(=C\c3ccc(C(F)(F)F)cc3)c(=O)n12 (configuration not stated) when you can.
Result :: 56

Query :: Please report growth for the following compound: CCn1c(=O)c(C(=O)NCCCO)c(O)c2ccccc21
Result :: 123

Query :: State its growth: C(=Nc1ccc(-c2ccc(N=Cc3ccccc3)cc2)cc1)c1ccccc1
Result :: 94.6

Query :: Return growth (reported value) for this compound: N/C(=N\OC(=O)c1ccccc1)C(C(=O)NOC(=O)c1ccccc1)C1CCCCC1 (configuration not stated)
Result :: 85.3

Query :: Please give measured growth of the following entry: COc1ccc(/C(C)=N/NC(=O)c2ccc(S(C)(=O)=O)cc2)cc1OC
Result :: 98.1

Query :: Report measured growth; entry is C[C@@H]1CC2C3CCC4=CC(=O)C=C[C@]4(C)[C@@]3(Cl)[C@@H](O)C[C@]2(C)[C@@]1(OC(=O)c1ccco1)C(=O)CCl (some centres not stated)
Result :: 87.7

Query :: Read the entry O=C(c1ccccc1)C(CCc1ccccn1)CCc1ccccn1 and write its reported growth.
Result :: 82.4
